OD450 at 1.39 nM listing for selected binders.
- Measured target: biotinylated labeled human GPC3 protein (produced in-house) (human, UniProt P51654 25-559, limits assumed, biotinylated (Dojindo, Cat. No. LK03); sites not stated)
- Run description: ELISA, biotinylated human GPC3 protein
Numeric only. Scale: OD450

Please review the following examples before continuing.
Binder: hAb007LH1L1d (antibody, human IgG1, V domains shown, Humanized F3.81.19; VH H1 + VL L1d; expressed as human IgG1) VH: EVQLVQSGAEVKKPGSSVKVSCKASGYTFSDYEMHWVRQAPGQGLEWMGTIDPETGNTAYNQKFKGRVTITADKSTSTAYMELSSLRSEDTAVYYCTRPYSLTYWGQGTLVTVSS VL: DIVMTQTPLSLPVTPGEPASISCRSSQSFVHSNSDTYLQWYLQKPGQSPQLLIYKVSNRFSGVPDRFSGSGSGTDFTLKISRVEAEDVGVYYCFQGSHVPYTFGQGTKLEIK
Unit name: OD450
OD450 at 1.39 nM: 1.1
--
Binder: hAb007LH1L1c (antibody, human IgG1, V domains shown, Humanized F3.81.19; VH H1 + VL L1c; expressed as human IgG1) VH: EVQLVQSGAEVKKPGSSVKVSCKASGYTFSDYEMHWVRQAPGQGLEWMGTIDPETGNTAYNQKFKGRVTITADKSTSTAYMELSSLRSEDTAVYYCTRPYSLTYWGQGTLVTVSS VL: DIVMTQTPLSLPVTPGEPASISCRSSQSFVHSNADTYLQWYLQKPGQSPQLLIYKVSNRFSGVPDRFSGSGSGTDFTLKISRVEAEDVGVYYCFQGSHVPYTFGQGTKLEIK
Unit name: OD450
OD450 at 1.39 nM: 1.09

As a next step, examine the binder that follows.
So, GC33 IgG (antibody, V domains shown, Control antibody expressed as complete IgG; also called codrituzumab) VH: QVQLVQSGAEVKKPGASVKVSCKASGYTFTDYEMHWVRQAPGQGLEWMGALDPKTGDTAYSQKFKGRVTLTADKSTSTAYMELSSLTSEDTAVYYCTRFYSYTYWGQGTLVTVSS VL: DVVMTQSPLSLPVTPGEPASISCRSSQSLVHSNRNTYLHWYLQKPGQSPQLLIYKVSNRFSGVPDRFSGSGSGTDFTLKISRVEAEDVGVYYCSQNTHVPPTFGQGTKLEIKR ? Its OD450 at 1.39 nM was 1.5

These data points were gathered from patent US20260116991A1.
